// provenance: patent EP4537832A1

- ASSAY_EXPLANATION: Safety evaluation (body weight changes) in pancreatic cancer PA1383 model
- Assay type: in vivo, Balb/nude female mice
- EXPERIMENTAL_CONDITIONS: 4 mg/kg i.v. QW×3; Day 25

- COMPOUND: "O=[N+]([O-])c1ccc(C(OP(=O)(N2CC2)N2CC2)C(F)(F)F)cc1Oc1ccc(-c2ccc(F)cc2)c(F)c1 (stereo not shown)"
  Body weights [g]: 24.7

* * *

- ASSAY_EXPLANATION: Safety evaluation (body weight changes) in gastric cancer GA6201 model
- Format: in vivo, BALB/c nude mice
- EXPERIMENTAL_CONDITIONS: 60 mg/kg intraperitoneal QD×5/week×2 wks; Day 11

- MOLECULE: "O=P1(NCCCl)OCCCN1CCCl (stereo not shown) [Ifosfamide, reference compound]"
  Body weights: "24.4 g"

* * *

- ASSAY_EXPLANATION: Safety evaluation (body weight changes) in pancreatic cancer PA1383 model
- Type: in vivo, Balb/nude female mice
- EXPERIMENTAL_CONDITIONS: 1 mg/kg i.v. QD×5, 2 days off, 2 weeks off, QD×5; Day 25

- MOLECULE: "C[C@@H](OP(=O)(N1CC1)N1CC1)c1ccc([N+](=O)[O-])c(Oc2cccc(C(=O)N(C)C)c2)c1 [AST-3424]"
  Body weights / g: 23.6

* * *

- ASSAY_EXPLANATION: Safety evaluation (body weight changes) in pancreatic cancer PA1222 model
- Assay type: in vivo, BALB/c nude mice
- EXPERIMENTAL_CONDITIONS: 120 mg/kg i.p. QW×3; Day 7

- MOLECULE: "Nc1ccn([C@@H]2O[C@H](CO)[C@@H](O)C2(F)F)c(=O)n1 [Gemcitabine, reference compound]"
  Body weights, g: 24.4

* * *

- ASSAY_EXPLANATION: Safety evaluation (body weight changes) in pancreatic cancer PA1383 model
- Type: in vivo, Balb/nude female mice
- EXPERIMENTAL_CONDITIONS: 1 mg/kg i.v. QD×5, 2 days off, 2 weeks off, QD×5; Day 21

- COMPOUND: "C[C@@H](OP(=O)(N1CC1)N1CC1)c1ccc([N+](=O)[O-])c(Oc2cccc(C(=O)N(C)C)c2)c1 [AST-3424]"
  Body weights (g): 23.6

* * *

- ASSAY_EXPLANATION: Safety evaluation (body weight changes) in lung cancer LU11693 model
- Format: in vivo, BALB/c Nude nude mice
- EXPERIMENTAL_CONDITIONS: 4 mg/kg tail vein QW×3; Day 4
ENDPOINT_LABEL: Body weights (g)

- COMPOUND: "N.N.[Cl][Pt][Cl] [Cisplatin]"
  ENDPOINT_LABEL: "Body weights"
  READOUT_VALUE: 23.6

* * *

- ASSAY_EXPLANATION: Safety evaluation (body weight changes) in pancreatic cancer PA1383 model
- Assay type: in vivo, Balb/nude female mice
- EXPERIMENTAL_CONDITIONS: 1 mg/kg i.v. QD×5, 2 days off, 2 weeks off, QD×5; Day 14
ENDPOINT_LABEL: Body weights (g)

- STRUCTURE_SMILES_STRING: "C[C@@H](OP(=O)(N1CC1)N1CC1)c1ccc([N+](=O)[O-])c(Oc2cccc(C(=O)N(C)C)c2)c1"
  READOUT_VALUE: 23.6

* * *

- ASSAY_EXPLANATION: Safety evaluation (body weight changes) in gastric cancer GA6201 model
- Format: in vivo, BALB/c nude mice
- EXPERIMENTAL_CONDITIONS: 5 mg/kg tail vein Q7D×3; Day 3
Form field: Body weights (one value per entry).

- COMPOUND: "O=[N+]([O-])c1ccc(C(OP(=O)(N2CC2)N2CC2)C(F)(F)F)cc1Oc1ccc(-c2ccc(F)cc2)c(F)c1 (centres unmarked) [AST]"
  Body weights [g]: 24.4
- COMPOUND: "C[C@@H](OP(=O)(N1CC1)N1CC1)c1ccc([N+](=O)[O-])c(Oc2cccc(C(=O)N(C)C)c2)c1 [AST-3424]"
  Body weights [g]: 25.1

* * *

- ASSAY_EXPLANATION: Safety evaluation (body weight changes) in lung cancer LU11693 model
- Type: in vivo, BALB/c Nude nude mice
- EXPERIMENTAL_CONDITIONS: 4 mg/kg tail vein QW×3; Day 18

- MOLECULE: "N.N.[Cl][Pt][Cl] [Cisplatin]"
  Body weights / g: 22.4

* * *

- ASSAY_EXPLANATION: Safety evaluation (body weight changes) in lung cancer LU11693 model
- Format: in vivo, BALB/c Nude nude mice
- EXPERIMENTAL_CONDITIONS: 4 mg/kg tail vein QW×3; Day 25

- MOLECULE: "N.N.[Cl][Pt][Cl] [Cisplatin]"
  Body weights (g): 23.4

* * *

- ASSAY_EXPLANATION: Safety evaluation (body weight changes) in gastric cancer GA6201 model
- Type: in vivo, BALB/c nude mice
- EXPERIMENTAL_CONDITIONS: 60 mg/kg intraperitoneal QD×5/week×2 wks; Day 8

- COMPOUND: "O=P1(NCCCl)OCCCN1CCCl (stereo not shown) [Ifosfamide, reference compound]"
  SCALE_UNIT: "g"
  Body weights: 24.5

* * *

- ASSAY_EXPLANATION: Safety evaluation (body weight changes) in pancreatic cancer PA1383 model
- Format: in vivo, Balb/nude female mice
- EXPERIMENTAL_CONDITIONS: 4 mg/kg i.v. QD×5, 2 days off, 2 weeks off, QD×5; Day 7
ENDPOINT_LABEL: Body weights (g)

- COMPOUND: "O=[N+]([O-])c1ccc(C(OP(=O)(N2CC2)N2CC2)C(F)(F)F)cc1Oc1ccc(-c2ccc(F)cc2)c(F)c1 (stereo not shown)"
  SCALE_UNIT: "g"
  READOUT_VALUE: 23.3

* * *

- ASSAY_EXPLANATION: Safety evaluation (body weight changes) in pancreatic cancer PA1383 model
- Type: in vivo, Balb/nude female mice
- EXPERIMENTAL_CONDITIONS: 1 mg/kg i.v. QD×5, 2 days off, 2 weeks off, QD×5; Day 4

- STRUCTURE_SMILES_STRING: "C[C@@H](OP(=O)(N1CC1)N1CC1)c1ccc([N+](=O)[O-])c(Oc2cccc(C(=O)N(C)C)c2)c1"
  Body weights [g]: 22.8

* * *

- ASSAY_EXPLANATION: Safety evaluation (body weight changes) in lung cancer LU11693 model
- Type: in vivo, BALB/c Nude nude mice
- EXPERIMENTAL_CONDITIONS: 4 mg/kg tail vein QW×3; Day 21

- COMPOUND: "N.N.[Cl][Pt][Cl] [Cisplatin]"
  SCALE_UNIT: "g"
  Body weights: 23

* * *

- ASSAY_EXPLANATION: Safety evaluation (body weight changes) in pancreatic cancer PA1383 model
- Assay type: in vivo, Balb/nude female mice
- EXPERIMENTAL_CONDITIONS: 4 mg/kg i.v. QD×5, 2 days off, 2 weeks off, QD×5; Day 4

- COMPOUND: "O=[N+]([O-])c1ccc(C(OP(=O)(N2CC2)N2CC2)C(F)(F)F)cc1Oc1ccc(-c2ccc(F)cc2)c(F)c1 (stereo not shown) [AST]"
  Body weights: "22.8 g"

* * *

- ASSAY_EXPLANATION: Safety evaluation (body weight changes) in gastric cancer GA6201 model
- Type: in vivo, BALB/c nude mice
- EXPERIMENTAL_CONDITIONS: 2.5 mg/kg tail vein Q7D×3; Day 21

- COMPOUND: "O=[N+]([O-])c1ccc(C(OP(=O)(N2CC2)N2CC2)C(F)(F)F)cc1Oc1ccc(-c2ccc(F)cc2)c(F)c1 (stereo not shown)"
  Body weights: "25.4 g"

* * *

- ASSAY_EXPLANATION: Safety evaluation (body weight changes) in pancreatic cancer PA1383 model
- Format: in vivo, Balb/nude female mice
- EXPERIMENTAL_CONDITIONS: 8 mg/kg i.v. QW×3; Day 31

- MOLECULE: "O=[N+]([O-])c1ccc(C(OP(=O)(N2CC2)N2CC2)C(F)(F)F)cc1Oc1ccc(-c2ccc(F)cc2)c(F)c1 (stereo not shown)"
  SCALE_UNIT: "g"
  Body weights: 24.3

* * *

- ASSAY_EXPLANATION: Safety evaluation (body weight changes) in gastric cancer GA6201 model
- Assay type: in vivo, BALB/c nude mice
- EXPERIMENTAL_CONDITIONS: 60 mg/kg intraperitoneal QD×5/week×2 wks; Day 2

- MOLECULE: "O=P1(NCCCl)OCCCN1CCCl (stereo not shown) [Ifosfamide, reference compound]"
  Body weights / g: 25

* * *

- ASSAY_EXPLANATION: Safety evaluation (body weight changes) in gastric cancer GA6201 model
- Type: in vivo, BALB/c nude mice
- EXPERIMENTAL_CONDITIONS: 60 mg/kg intraperitoneal QD×5/week×2 wks; Day 1

- MOLECULE: "O=P1(NCCCl)OCCCN1CCCl (stereo not shown) [Ifosfamide, reference compound]"
  SCALE_UNIT: "g"
  Body weights: 25.5
